Target: UniProt P36969
Sequence (P36969 1-170 isoform P36969-2): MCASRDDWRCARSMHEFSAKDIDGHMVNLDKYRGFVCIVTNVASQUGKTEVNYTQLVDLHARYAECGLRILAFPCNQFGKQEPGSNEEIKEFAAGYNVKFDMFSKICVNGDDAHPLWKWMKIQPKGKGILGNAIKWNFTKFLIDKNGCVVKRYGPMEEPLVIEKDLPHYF
Experiment: GPX4 activity assay in cell lysates (NADPH-coupled)
Assay type: biochemical
Parameters: endogenous in cells; host or cells: A-673 cell lysate
Settings: 200 μM
observation type: GPX4 inhibition

entry smiles | test result
CC(C)(COC(=O)CCl)NC(=O)c1c[nH]c2ccccc12 | 76%
Cn1nc(C(=O)NC(C)(C)COC(=O)CCl)c2ccccc21 | complete inhibition
CC(C)(COC(=O)CCl)NC(=O)c1cc2ccc(Br)cc2[nH]1 | complete inhibition
CC(C)(COC(=O)CCl)NC(=O)c1nn(-c2ccccc2)c2ccccc12 | complete inhibition
COc1ccc2cc(C(=O)NC(C)(C)COC(=O)CCl)[nH]c2c1 | complete inhibition
Cn1nc(C(=O)NC(C)(C)COC(=O)CCl)c2ccc(Br)cc21 | complete inhibition
CC(C)(COC(=O)CCl)NC(=O)c1n[nH]c2cc(Br)ccc12 | complete inhibition
Cn1nc(C(=O)NC(C)(C)COC(=O)CCl)c2cccc(OC(=O)CCl)c21 | complete inhibition
Cn1nc(C(=O)NC(C)(C)COC(=O)CCl)c2cc(Br)ccc21 | complete inhibition
